# tested-target: T1, PUF4 RNA-binding domain (Saccharomyces cerevisiae, UniProt P25339 537-888)
# T1 sequence: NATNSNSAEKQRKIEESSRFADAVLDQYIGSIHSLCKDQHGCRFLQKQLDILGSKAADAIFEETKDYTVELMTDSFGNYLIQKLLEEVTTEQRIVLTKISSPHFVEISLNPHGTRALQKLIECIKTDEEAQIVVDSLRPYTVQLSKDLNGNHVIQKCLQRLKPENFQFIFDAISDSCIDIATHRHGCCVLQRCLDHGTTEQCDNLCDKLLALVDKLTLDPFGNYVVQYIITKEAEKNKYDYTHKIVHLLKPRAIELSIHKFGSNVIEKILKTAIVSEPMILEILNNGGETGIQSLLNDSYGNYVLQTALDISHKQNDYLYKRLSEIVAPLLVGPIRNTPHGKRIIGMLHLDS
# assay-comment: Mg; RNA-MaP; 20 mM Na-HEPES pH 7.4, 30 mM KOAc, 0.75 mM MgCl2, 0.1% Tween-20, 5% glycerol, 0.1 mg/mL BSA, 2 mM DTT; 25 C; 0.0125-409.6 nM protein
# details: tags: N-His6-TEV cleaved; C-SNAP kept, Cy3B-labelled; label: tethered on chip by stalled RNA polymerase
Binary call on Kd with cut-off 100 nM: strictly below means fulfilled, and equality or higher means not fulfilled.

UCUCUUUUACACUAUUAAUUCUCUU (ssRNA) [Id_ii_S1_P4E.4_K4.3_C4.2_[C-2T]_H4.3_A4.1_F4.1_T4.2_[G10A]] : not fulfilled
Ic_S4_P4E.1_K4.1_C4.1_H4.1_A4.1_[T5A]_[T7A]_F4.1_[T8A]_T4.1 (ssRNA) RNA: UUUGACAACUGAUCGUUCUUUCUUGUAAAAAAUUCUUUCUCGAUCAGUUGUCUUU : not fulfilled
Id_ii_S2_P4E.3_K4.2_C4.2_[C-2A]_[T-1A]_H4.2_A4.1_F4.1_T4.2_[G10C]_[T11C] (ssRNA) RNA: UUUGAUUAAUAUGAUAUCGUUCUUUCUAAUAUAUAUUACCUUCUUUCUCGAUAUCAUAUUAAUCUUU : fulfilled

Turning to the following binder.
Task: Please determine if Ic_S2_P3E.1_K3.1_C3.1_H3.1_A3.1_[T5G]_[A6T]_F3.1_[T7C]_[A8G]_T3.1 (ssRNA) RNA: UUUGAUUAAUAUGAUAUCGUUCUUUCUUGUAGUCGUUCUUUCUCGAUAUCAUAUUAAUCUUU is below 100 nM in terms of Kd.
Output: not fulfilled
